The reported measurements were obtained from patent EP2272817A1.

- TESTED_TARGET: recombinant human PAI-1 (Homo sapiens, UniProt P05121);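 further: PAI-1 preincubated with compound, then two-chain tPA added, residual tPA activity read with fluorogenic Pyr-Gly-Arg-MCA substrate after 30 min at room temperature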
- Sequence (P05121 24-402): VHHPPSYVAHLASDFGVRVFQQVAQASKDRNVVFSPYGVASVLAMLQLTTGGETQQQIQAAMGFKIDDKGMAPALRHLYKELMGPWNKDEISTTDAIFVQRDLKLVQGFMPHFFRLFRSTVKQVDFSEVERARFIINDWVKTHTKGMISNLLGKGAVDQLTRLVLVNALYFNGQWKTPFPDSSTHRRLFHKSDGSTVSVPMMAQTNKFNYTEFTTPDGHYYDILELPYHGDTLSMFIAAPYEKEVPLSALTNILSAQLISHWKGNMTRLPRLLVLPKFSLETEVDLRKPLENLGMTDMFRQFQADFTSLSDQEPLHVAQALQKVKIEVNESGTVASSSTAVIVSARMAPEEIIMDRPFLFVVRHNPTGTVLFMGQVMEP
- ASSAY_OVERVIEW: biochemical
- PARTICULARS: read-out: Inhibition Rate of PAI-1 Activity (%)
Each item that follows carries a reported inhibition at 5 µM.
ENDPOINT: inhibition at 5 µM (%)

INSERT INTO measurements (compound, endpoint, test_result) VALUES
  ('COc1cc(-c2ccc(OC(F)(F)F)cc2)cc(CCC(=O)O)c1OCc1ccc(C(C)(C)C)cc1', 'inhibition at 5 µM', 26),
  ('CC(c1ccc(C(C)(C)C)cc1)N(C(=O)C(=O)O)c1ccc(-c2ccc(OC(F)(F)F)cc2)cc1 (stereo not shown)', 'inhibition at 5 µM', 51),
  ('CC(OCC(=O)O)c1cc(-c2ccc(OC(F)(F)F)cc2)ccc1OCc1ccc(C(C)(C)C)cc1 (stereo not shown)', 'inhibition at 5 µM', 52),
  ('CC(C)(C)c1ccc(N(C(=O)C(=O)O)c2ccc(Oc3ccc(OC(F)(F)F)cc3)cc2)cc1', 'inhibition at 5 µM', 27),
  ('O=C(O)C(=O)N(CCCCc1ccccc1)c1ccc(-c2ccc(OC(F)(F)F)cc2)cc1', 'inhibition at 5 µM', 27),
  ('CC(C)(C)c1ccc(COc2ccc(-c3ccc(OC(F)(F)F)cc3)cc2OCc2nn[nH]n2)cc1', 'inhibition at 5 µM', 29),
  ('CC(C)(C)c1ccc(N(C(=O)C(=O)O)c2cccc(-c3ccc(OC(F)(F)F)cc3)c2)cc1', 'inhibition at 5 µM', 26);
